experimental system: Serotonin 2 (5-HT2) receptor (Rattus norvegicus, UniProt P30994+P08909+P14842)
assay remarks: Binding affinity towards serotonin 5-HT2 receptor was determined in rat cortex using [3H]spiperone as ligand
Below, each entry is listed alongside its reported IC50.
Expressed in µM, but write only the number.

Recorded IC50, per entry:
> print(dat)
                                   compound  property  unit.annotation     val
1  CC1(C)SCN(CCCCN2CCN(c3csc4cc(F)ccc34)CC2)C1=O      IC50               µM    0.01
2   COc1ccccc1N1CCN(CCCCN2CSC(C)(C)C2=O)CC1      IC50               µM   0.588
3  CC1SC2(CCCC2)C(=O)N1CCCCN1CCN(c2nsc3ccccc23)CC1 (stereo unspecified)      IC50               µM  0.0096
4      O=C1CSCN1CCCCN1CCN(c2nsc3ccccc23)CC1      IC50               µM   0.007
5  COc1ccccc1N1CCN(CCCCN2CSC3(CCCC3)C2=O)CC1      IC50               µM   0.492
6  CSc1cccc(N2CCN(CCCCN3C(=O)CSC3(C)C)CC2)c1      IC50               µM   0.503

# input Request the reported IC50 associated with CC(C)(O)C1SCN(CCCCN2CCN(c3csc4cc(F)ccc34)CC2)C1=O (stereo unspecified)
# output 0.105

# input Request the reported IC50 associated with O=C1N(CCCCN2CCN(c3nsc4cc(Cl)ccc34)CC2)CSC12CCCCC2
# output 1.06

###

experimental system: 5-hydroxytryptamine receptor 1A (Rattus norvegicus)
Below, each entry is listed alongside its reported IC50.
Expressed in µM, but write only the number.

Recorded IC50, per entry:
> print(dat)
                                   compound  property    val
1  O=C1CSCN1CCCCN1CCN(c2cccc(C(F)(F)F)c2)CC1      IC50  0.034
2  CC1SC(C)(C)C(=O)N1CCCCN1CCN(c2cn(-c3ccccc3)c3ccccc23)CC1 (centres undefined)      IC50   2.55
3       COc1cccc(N2CCN(CCCCN3CSCC3=O)CC2)c1      IC50  0.139

Switching to the query record.
# input Could you share what IC50 was measured for O=C1N(CCCCN2CCN(c3nsc4cc(Cl)ccc34)CC2)CSC12CCCCC2 , tested on 5-hydroxytryptamine receptor 1A (Rattus norvegicus)?
# output 0.969

###

experimental system: D(2) dopamine receptor (Rattus norvegicus)
Sequence (P61169 whole entry): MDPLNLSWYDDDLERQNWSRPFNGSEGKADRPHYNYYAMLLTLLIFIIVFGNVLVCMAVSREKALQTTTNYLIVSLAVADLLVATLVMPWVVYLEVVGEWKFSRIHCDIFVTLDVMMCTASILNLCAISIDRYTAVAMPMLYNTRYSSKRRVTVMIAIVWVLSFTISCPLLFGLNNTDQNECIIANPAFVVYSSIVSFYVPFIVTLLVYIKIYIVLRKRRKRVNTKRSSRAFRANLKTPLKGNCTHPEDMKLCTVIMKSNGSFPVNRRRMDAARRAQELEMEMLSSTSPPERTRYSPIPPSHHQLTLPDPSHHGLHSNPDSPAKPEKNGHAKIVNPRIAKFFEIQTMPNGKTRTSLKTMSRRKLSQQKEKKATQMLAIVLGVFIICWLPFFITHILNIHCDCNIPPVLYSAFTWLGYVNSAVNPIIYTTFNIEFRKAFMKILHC
assay remarks: Binding affinity towards Dopamine receptor D2 was determined in rat striatum using [3H]- spiperone as radioligand
Below, each entry is listed alongside its reported pIC50.
Notebook: values listed as pIC50 are -log10 of the concentration (mol/L).

Recorded pIC50, per entry:
> print(dat)
                                   compound   val
1  CC1SC(C)(C)C(=O)N1CCCCN1CCN(c2cn(-c3ccccc3)c3ccccc23)CC1 (stereo not given)  6.70
2  CC1SC2(CCCC2)C(=O)N1CCCCN1CCN(c2nsc3ccccc23)CC1 (stereo not given)  6.81
3  COc1ccccc1N1CCN(CCCCN2CSC3(CCCC3)C2=O)CC1  6.82
4  CC1SC(C)(C)C(=O)N1CCCCN1CCN(c2csc3cc(Cl)ccc23)CC1 (stereo not given)  5.33
5  CC1(C)SCN(CCCCN2CCN(c3cn(-c4ccccc4)c4ccccc34)CC2)C1=O  6.72
6  CC(C)(O)C1SCN(CCCCN2CCN(c3csc4cc(F)ccc34)CC2)C1=O (stereo not given)  6.34

# input Request the reported pIC50 associated with O=C1CSCN1CCCCN1CCN(c2cccc(C(F)(F)F)c2)CC1
# output 5.71

# input Request the reported pIC50 associated with Cc1cccc(N2CCN(CCCCN3C(=O)C(C)(C)SC3(C)C)CC2)c1
# output 5.74

# input Request the reported pIC50 associated with Cc1cccc(N2CCN(CCCCN3CSC(C)(C)C3=O)CC2)c1C
# output 6.04

# input Request the reported pIC50 associated with O=C1N(CCCCN2CCN(c3nsc4cc(Cl)ccc34)CC2)CSC12CCCCC2
# output 6.17

###

experimental system: D(4) dopamine receptor (Homo sapiens)
Sequence (P21917 whole entry): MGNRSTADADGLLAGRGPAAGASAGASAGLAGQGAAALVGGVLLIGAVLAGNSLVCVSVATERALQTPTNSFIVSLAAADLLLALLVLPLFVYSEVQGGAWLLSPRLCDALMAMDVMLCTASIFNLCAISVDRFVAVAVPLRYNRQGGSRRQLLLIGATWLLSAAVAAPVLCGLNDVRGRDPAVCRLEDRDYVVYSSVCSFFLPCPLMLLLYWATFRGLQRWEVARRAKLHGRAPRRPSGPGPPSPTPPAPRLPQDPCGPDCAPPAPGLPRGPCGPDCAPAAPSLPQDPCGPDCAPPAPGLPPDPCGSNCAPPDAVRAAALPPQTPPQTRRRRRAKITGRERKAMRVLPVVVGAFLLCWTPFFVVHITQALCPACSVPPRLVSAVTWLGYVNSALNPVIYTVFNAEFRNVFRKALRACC
assay remarks: Binding affinity against human Dopamine receptor D4.2 in CHO cells
property: pKi
Notebook: values listed as pKi are -log10 of the concentration (mol/L).

> print(dat)
                                   compound   val
1  CC1SC2(CCCC2)C(=O)N1CCCCN1CCN(c2csc3cc(F)ccc23)CC1 (configuration not stated)  6.93

Switching to the query record.
# input Request the reported pKi associated with CC1SC(C)(C)C(=O)N1CCCCN1CCN(c2csc3cc(F)ccc23)CC1 (configuration not stated)
# output 8.30

###

Below, each entry is listed alongside its reported pIC50.
experimental system: UniProtKB P19327
Sequence (P19327 whole entry): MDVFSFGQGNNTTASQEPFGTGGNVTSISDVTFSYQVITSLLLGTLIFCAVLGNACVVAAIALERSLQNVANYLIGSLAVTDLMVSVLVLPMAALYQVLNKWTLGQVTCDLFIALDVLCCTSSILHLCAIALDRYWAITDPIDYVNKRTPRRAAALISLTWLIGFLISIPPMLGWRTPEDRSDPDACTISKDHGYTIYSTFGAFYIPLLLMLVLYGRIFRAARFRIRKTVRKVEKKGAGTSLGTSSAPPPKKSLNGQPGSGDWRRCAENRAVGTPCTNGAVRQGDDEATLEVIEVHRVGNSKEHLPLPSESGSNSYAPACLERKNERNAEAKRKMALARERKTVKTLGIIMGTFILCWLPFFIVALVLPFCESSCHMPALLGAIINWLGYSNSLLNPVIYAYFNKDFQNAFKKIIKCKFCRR
Notebook: values listed as pIC50 are -log10 of the concentration (mol/L).

Recorded pIC50, per entry:
> print(dat)
                                   molecule  experimental.system   val
1  CC1SCN(CCCCN2CCN(c3nsc4ccccc34)CC2)C1=O (stereo unspecified)     UniProtKB P19327  7.96
2  Cc1cccc(N2CCN(CCCCN3C(=O)CSC3(C)C)CC2)c1     UniProtKB P19327  7.59
3  Cc1cccc(N2CCN(CCCCN3CSC(C)(C)C3=O)CC2)c1C     UniProtKB P19327  8.22
4          Cc1ccccc1N1CCN(CCCCN2CSCC2=O)CC1     UniProtKB P19327  7.21

# input Could you share what pIC50 was measured for CC1SC(C)(C)C(=O)N1CCCCN1CCN(c2csc3cc(Cl)ccc23)CC1 (stereo unspecified) , tested on UniProtKB P19327?
# output 6.07

# input Could you share what pIC50 was measured for O=C1N(CCCCN2CCN(c3nsc4ccccc34)CC2)CSC12Cc1ccccc1C2 , tested on UniProtKB P19327?
# output 7.28

###

experimental system: D(2) dopamine receptor (Rattus norvegicus)
assay remarks: Binding affinity towards Dopamine receptor D2 was determined in rat striatum using [3H]- spiperone as radioligand
Below, each entry is listed alongside its reported pIC50.
Notebook: values listed as pIC50 are -log10 of the concentration (mol/L).

Recorded pIC50, per entry:
> print(dat)
                                   molecule   val
1         O=C1CSCN1CCCCN1CCN(c2ccccc2Cl)CC1  6.19
2    Cc1ccccc1N1CCN(CCCCN2CSC(C)(C)C2=O)CC1  5.75
3  CC1(C)SCN(CCCCN2CCN(c3cn(-c4ccc(F)cc4)c4ccccc34)CC2)C1=O  6.88
4  CC1SC2(CCCC2)C(=O)N1CCCCN1CCN(c2cn(-c3ccccc3)c3ccccc23)CC1 (configuration not stated)  6.45
5  O=C1N(CCCCN2CCN(c3cn(-c4ccc(F)cc4)c4ccccc34)CC2)CSC12CCCCC2  7.74

# input Request the reported pIC50 associated with CC1(C)SCC(=O)N1CCCCN1CCN(c2cccc(C(F)(F)F)c2)CC1
# output 5.95

# input Request the reported pIC50 associated with O=C1N(CCCCN2CCN(c3cn(-c4ccccc4)c4ccccc34)CC2)CSC12CCCCC2
# output 6.33

# input Request the reported pIC50 associated with CC1SCC(=O)N1CCCCN1CCN(c2cccc(Cl)c2)CC1 (configuration not stated)
# output 5.65

# input Request the reported pIC50 associated with Cc1ccccc1N1CCN(CCCCN2CSCC2=O)CC1
# output 5.79

# input Request the reported pIC50 associated with COc1ccccc1N1CCN(CCCCN2CSC(C)(C)C2=O)CC1
# output 6.26

# input Request the reported pIC50 associated with CC1(C)SCC(=O)N1CCCCN1CCN(c2cccc(Cl)c2)CC1
# output 6.08

# input Request the reported pIC50 associated with COc1cccc(N2CCN(CCCCN3CSCC3=O)CC2)c1
# output 5.13

# input Request the reported pIC50 associated with Cc1cccc(N2CCN(CCCCN3CSCC3=O)CC2)c1C
# output 6.11

Reference source for all entries: ChEMBL document CHEMBL1129432
